Attribution: PubChem BioAssay

# testedOn: Follistatin (Homo sapiens)
# experiment: follistatin binders on small-molecule microarrays, primary screen, biochemical, small-molecule microarray, 635/667 nm fluorescence (AID 1132)
# experimentalSetup: FST binding, 635 nm fluorescence, higher = more signal
Quick rule: composite z-score of at least 0.7 means label 1, below that means label 0.

molecule=CCOC(=O)C[C@H]1[C@H](OC(=O)c2cc3ccccc3oc2=O)[C@@H](NC(=O)C2CCCCC2)c2cc(OCCCO)ccc2N1C(=O)Cc1ccc(OC)cc1 classassignment="label 1"

Reported composite z-score reaches at least 0.7 for CC(C)C[C@H]1NC(=O)[C@@H](C)NC(=O)[C@@]23C(=O)N[C@@H](Cc4ccccc4)C2[C@H](C)[C@@]2(C)O[C@H]2C3/C=C/C/C=C\CNC1=O (some centres undefined) ? label 1

Reported composite z-score reaches at least 0.7 for C[C@]1(C(=O)NCC(F)(F)F)c2ccccc2C(=O)N(Cc2ccc(OC(F)(F)F)cc2)[C@H]1c1ccc(CO)cc1 ? label 1

Reported composite z-score reaches at least 0.7 for C[N+](C)(C)CCCC[C@@H]1NC(=O)[C@H]2C[C@@H](C(=O)NCCCCCNC(=O)CS)[C@@H](c3ccc(O)cc3)N2C1=O ? label 1

Reported composite z-score reaches at least 0.7 for CC1CC/C=C\[C@H]2OC34C=CCN(c5ccc(Cl)cc5)C(=O)[C@H]3N(CCCO)C(=O)[C@]4(C)C2C(=O)O1 (some centres undefined) ? label 0

###

# experiment: S. cerevisiae RM11-1a growth modifiers, primary screen, strain RM11-1a, OD600, basal, 24 h (AID 1177);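 further: cultures grown under basal conditions with no added stressor; test concentration not given here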
# experimentalSetup: OD600, 24 h, higher = more signal, called active from +8 up or from −8 down
Activity calls are given as the source filed them.
Consider the following compounds; for each one, report its z-score.

Examples with answers:
compound=CCOC(=O)C1=CC[C@@H](c2ccccc2)N(S(=O)(=O)C[Si](C)(C)C)[C@H]1c1ccccc1 reportedresult="-0.42 (inactive)"
compound=CN(C)CCCC[C@@H]1NC(=O)[C@H]2C[C@@H](C(=O)O)[C@@H](c3cccc(OCCO)c3)N2C1=O reportedresult="-0.452 (inactive)"
compound=COCCOC(=O)N1C(=O)[C@@]2(c3cc(C#CC4=CCCCC4)ccc31)[C@H](C(=O)N1CCc3cc(OC)c(OC)cc3C1)[C@H]1C(=O)O[C@H](c3ccccc3)[C@H](c3ccccc3)N1[C@@H]2c1ccc(O)cc1 reportedresult="2.23 (inactive)"
compound=CN(C)CCCCNC(=O)[C@H]1C[C@H]2C(=O)N[C@@H](Cc3ccccc3)C(=O)N2[C@H]1c1cccc(OCCO)c1 reportedresult="-0.372 (inactive)"
compound="CCCCC(O)C1C=CC2C(=O)N(C)C(=O)C2N1Nc1ccccc1 (stereo not given)" reportedresult="1.53 (inactive)"

Quick one: give me z-score for each item below, same order please.
1. C#CCN=C(N)N
2. CC[C@H](C)C(=O)O[C@H]1CC[C@]2(C)C3=C(CCC2C1(C)C)[C@]1(C)CC[C@H]([C@H](C)CCCC(C)C)[C@@]1(C)CC3 (stereo not given in full)
3. COc1ccc([Si](C)(C)[C@H]2[C@H](CCO)O[C@@]3(C(=O)N(Cc4ccccc4)c4ccc(N(C=O)c5ccccc5)cc43)[C@@H]2C)cc1
4. CO[C@H]1O[C@H](CO)[C@@H](OC(=O)Nc2ccc(C(F)(F)F)cc2)[C@H](OC(=O)Nc2ccccc2-c2ccccc2)[C@@H]1OC(=O)Nc1ccccc1-c1ccccc1

1: -0.491 (inactive); 2: 0.295 (inactive); 3: 5.16 (inactive); 4: 1.21 (inactive)
